Every entry's value here was drawn from the Deep4Chem optical property database.

assayProcedure: solvent given as SMILES
assayConditions: in CCO
Please mark 1.0 if the recorded absorption maximum is equal to or greater than 400 nm, and 0.0 if it falls below.

Worked set:
INSERT INTO assay_data (compound, assignedlabel) VALUES
  ('CC1=NN(c2ccccc2)C(=O)/C1=C\c1cn(-c2ccccc2)nc1-c1ccc([N+](=O)[O-])cc1', 0.0),
  ('CN(C)c1ccc(C#Cc2ccc3c(N(C)C)cc(-c4ccccc4)cc3c2)cc1', 0.0),
  ('CCC[n+]1ccc(/C=C/c2ccc(N(C)C)cc2)cc1', 1.0),
  ('CCOC(=O)c1ccccc1-c1c2ccc(=[N+](CC)CC)cc-2oc2c1oc1cc(N)ccc12', 1.0),
  ('COc1ccccc1-c1c2ccc(=[N+]3CCCCC3)cc-2oc2cc(N3CCCCC3)ccc12', 1.0),
  ('Cc1oc(-c2ccccc2)nc1C(=O)O', 0.0),
  ('Cc1c2ccccc2c(C2=C3C=CC=[N+]3[B-](F)(F)n3cccc32)c2ccccc12', 1.0),
  ('CCC12C(=C3C(=C4c5ccc(-c6ccc(C)s6)cc5S(=O)(=O)C41CC)C(F)(F)C(F)(F)C3(F)F)c1ccc(-c3ccc(C)s3)cc1S2(=O)=O (configuration not stated)', 1.0),
  ('CC(=O)c1ccc2ccc3c(NCCC(=O)NCCCCCCc4nc5c(=O)[nH]c(N)nc5n4[C@H]4C[C@H](O)[C@@H](CO)O4)ccc4ccc1c2c43', 1.0),
  ('CN(C)CCNc1ccc([N+](=O)[O-])cc1[N+](=O)[O-]', 0.0);

Then this compound:
Input: # check: absorption maximum of COc1cc(OC)c2c(c1)C(=O)c1ccc(OC)cc1-2 is greater than or equal to 400 nm
Output: 1.0
